# study-system: human mAChR M4 (Homo sapiens)
# Construct: expressed in transfected cells; host or cells: CHO-K1 (ATCC), stably expressing hM4 and Gqi5
# Sequence (P08173 whole entry): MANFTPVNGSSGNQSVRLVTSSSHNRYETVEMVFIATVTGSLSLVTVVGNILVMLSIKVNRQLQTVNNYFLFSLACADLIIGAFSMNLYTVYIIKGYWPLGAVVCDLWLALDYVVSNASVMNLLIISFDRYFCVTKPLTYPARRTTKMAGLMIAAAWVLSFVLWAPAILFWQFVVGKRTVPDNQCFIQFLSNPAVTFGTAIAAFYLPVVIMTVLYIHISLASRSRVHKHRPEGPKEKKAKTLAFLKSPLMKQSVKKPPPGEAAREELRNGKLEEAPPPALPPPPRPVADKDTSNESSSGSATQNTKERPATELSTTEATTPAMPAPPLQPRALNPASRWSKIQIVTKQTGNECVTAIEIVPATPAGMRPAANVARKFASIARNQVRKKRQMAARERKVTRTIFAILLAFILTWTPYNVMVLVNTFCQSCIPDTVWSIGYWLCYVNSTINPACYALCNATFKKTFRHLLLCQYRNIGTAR
# procedure-text: mAChR M4 cell-based functional assay: calcium flux (Fluo-4, FDSS), positive allosteric modulator activity on the EC20 acetylcholine response, hM4-Gqi5 CHO-K1 cells
# assay-conditions: CHO-K1, human M4; % ACh maximum at 30 μM
property: Emax at 30 µM (%)

* Cc1nc(N2CCc3ncc(-c4c(C)noc4C)cc3C2)c2cc(F)ccc2n1 | 90
* COc1ccc2ncnc(N3CCc4ncc(-c5cn(C)nc5C)cc4C3)c2c1 | 109
* Cc1nc(N2CCc3ncc(-c4ccccc4C)cc3C2)c2cc(F)ccc2n1 | 68
* Fc1cc2ncnc(N3CCc4ncc(N5CCCn6nccc65)cc4C3)c2cc1F | 109
* [2H]c1nc(N2CCc3ncc(C(F)(F)F)cc3C2)c2cc(F)ccc2n1 | 91
